Recorded melting point by entry

Record request: melting point value, item COc1ncnc(N2CCCC2)c1Cc1cccc(F)c1
74 to 76 °C

Look at this compound and give its reported melting point. CS(=O)(=O)c1nc(Cl)c(Cc2ccccc2)c(N2CCCC2)n1
136 to 138 °C

Recorded melting point for CSc1nc(Cl)c(Cc2ccccc2)c(N2CCCC2)n1 [Compound 1-165] , please?
97 to 99 °C

Request the reported melting point associated with Fc1cccc(Cc2cncnc2N2CCCC2)c1 [Compound 1-102]
51 to 54 °C
